- System: Aβ40 in conditioned medium of cells stably expressing Amyloid Precursor Protein (APP)
- measurement protocol: In vitro BACE cell-based assay (Aβ40 in conditioned medium, sandwich ELISA);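 note: compounds added as a dilution series, secreted peptide quantified by europium time-resolved fluorescence readout, potency fitted from percent of control versus compound concentration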
- particulars: Homo sapiens, HEK293, HEK cell-based assay IC50; read-out: HEK cell assay
pIC50: −log10 of the molar value.
property label: pIC50

> print(dat)
                                    compound  property.label  recorded.measurement
 1  CO[C@H](C)C(=O)N[C@@H](Cc1ccc(F)c(-c2nccs2)c1)[C@H](O)CN[C@H]1CC2(CCC2)Oc2ncc(CC(C)(C)C)cc21 [Example 690]           pIC50                  7.40
 2  COC(OC)C(=O)N[C@@H](Cc1ccc2c(c1)OCO2)[C@H](O)CN[C@H]1CC2(CCC2)Oc2ncc(CC(C)C)cc21 [compound 754]           pIC50                  7.27
 3  CNc1nc(CC(C)(C)C)cc2c1OC1(CCC1)C[C@@H]2NC[C@@H](O)[C@H](Cc1ccc(F)c(-c2nccs2)c1)NC(=O)COC [compound 716]           pIC50                  7.60
 4  CO[C@H](C)C(=O)N[C@@H](Cc1cc(F)cc(F)c1)[C@H](O)CN[C@H]1CC2(CCC2)Oc2c1cc(CC(C)C)nc2-c1nccn1C [compound 704]           pIC50                  7.62
 5  CO[C@H](C)C(=O)N[C@@H](Cc1ccc2c(c1)OCO2)[C@H](O)CN[C@H]1CC2(CCC2)Oc2ncc(CC(C)(C)F)cc21 [compound 741]           pIC50                  6.48
 6  CC(=O)N[C@@H](Cc1ccc(F)c(-c2ncc[nH]2)c1)[C@H](O)CN[C@H]1CC2(CCC2)Oc2ncc(CC(C)(C)C)cc21 [Example 428]           pIC50                  7.89
 7  COCC(=O)N[C@@H](Cc1ccc(F)c(-c2ncc(C)s2)c1)[C@H](O)CN[C@H]1CC2(CCC2)Oc2ncc(CC(C)(C)C)cc21 [compound 729]           pIC50                  6.54
 8  COCC(=O)N[C@@H](Cc1cc(F)cc(-c2nccs2)c1)[C@H](O)CN[C@H]1CC2(CCC2)Oc2cnc(CC(C)(C)F)cc21 [compound 718]           pIC50                  7.21
 9  COCC(=O)N[C@@H](Cc1ccc(F)c(-c2nccs2)c1)[C@H](O)CN[C@H]1CC2(CCC2)Oc2ncc(CC(C)(C)F)cc21 [Example 743]           pIC50                  7.43
10  COCC(=O)N[C@@H](Cc1ccc(F)cc1)[C@H](O)CN[C@H]1CC2(CCNC2)Oc2cnc(CC(C)(C)C)cc21 (stereo partly shown) [compound 696]           pIC50                  6.11
11  COCC(=O)N[C@@H](Cc1ccc(F)c(F)c1)[C@H](O)CN[C@H]1CC(C)(C)Oc2ncc(CC(C)(C)C)cc21 [compound 676]           pIC50                  7.96
12  COCC(=O)N[C@@H](Cc1cccc(F)c1)[C@H](O)CN[C@H]1CC2(CCC2)Oc2c(-c3ccnc(N(C)C)c3)cc(CC(C)(C)C)cc21 [Example 439]           pIC50                  8.30
13  CO[C@H](C)C(=O)N[C@@H](Cc1cc(F)cc(F)c1)[C@H](O)CN[C@H]1CC2(CCC2)Oc2c1cc(C1CC1)cc2-n1ccnc1 [compound 707]           pIC50                  7.55
14  COCC(=O)N[C@@H](Cc1ccc(F)c(-c2cncs2)c1)[C@H](O)CN[C@H]1CC2(CCC2)Oc2ncc(CC(C)(C)C)cc21 [compound 684]           pIC50                  7.92
15  COCC(=O)N[C@@H](Cc1cc(F)cc(F)c1)[C@H](O)CN[C@H]1CC2(CCC2)Oc2c1cc(CC(C)C)nc2-c1ccncc1 [compound 682]           pIC50                  7.96
16  COCC(=O)N[C@@H](Cc1ccc(-c2nccs2)c(F)c1)[C@H](O)CN[C@H]1CC2(CCC2)Oc2ncc(CC(C)(C)C)cc21 [Example 730]           pIC50                  7.57
17  COCC(=O)N[C@@H](Cc1ccc(F)c(-c2nccs2)c1)[C@H](O)CN[C@H]1CC2(CCC2)Oc2ncc(CC(C)C)cc21 [compound 727]           pIC50                  7.64
18  CO[C@H](C)C(=O)N[C@@H](Cc1cc(F)cc(F)c1)[C@H](O)CN[C@H]1CC2(CCC2)Oc2c1cc(CC(C)C)nc2-c1ccncc1 [Example 687]           pIC50                  7.80
19  CO[C@H](C)C(=O)N[C@@H](Cc1cc(F)cc(Cl)c1)[C@H](O)CN[C@H]1CC2(CCC2)Oc2cnc(CC(C)(C)F)cc21 [compound 719]           pIC50                  6.89
20  CO[C@H](C)C(=O)N[C@@H](Cc1cc(F)cc(F)c1)[C@H](O)CN[C@H]1CC2(CCC2)Oc2c1cc(CC(C)C)nc2Cl [compound 686]           pIC50                  7.28
21  CC(=O)N[C@@H](Cc1ccc(F)cc1)[C@H](O)CN[C@H]1CC2(CCNC2)Oc2cnc(CC(C)(C)C)cc21 (stereo partly shown) [compound 702]           pIC50                  6.34
22  CNc1nc(CC(C)C)cc2c1OC1(CCC1)C[C@@H]2NC[C@@H](O)[C@H](Cc1ccc2c(c1)OCO2)NC(=O)[C@@H](C)OC [compound 680]           pIC50                  7.60
